Hi! I'm sharing some pIC50 results obtained with UniProtKB P08254.
Sequence (P08254 whole entry): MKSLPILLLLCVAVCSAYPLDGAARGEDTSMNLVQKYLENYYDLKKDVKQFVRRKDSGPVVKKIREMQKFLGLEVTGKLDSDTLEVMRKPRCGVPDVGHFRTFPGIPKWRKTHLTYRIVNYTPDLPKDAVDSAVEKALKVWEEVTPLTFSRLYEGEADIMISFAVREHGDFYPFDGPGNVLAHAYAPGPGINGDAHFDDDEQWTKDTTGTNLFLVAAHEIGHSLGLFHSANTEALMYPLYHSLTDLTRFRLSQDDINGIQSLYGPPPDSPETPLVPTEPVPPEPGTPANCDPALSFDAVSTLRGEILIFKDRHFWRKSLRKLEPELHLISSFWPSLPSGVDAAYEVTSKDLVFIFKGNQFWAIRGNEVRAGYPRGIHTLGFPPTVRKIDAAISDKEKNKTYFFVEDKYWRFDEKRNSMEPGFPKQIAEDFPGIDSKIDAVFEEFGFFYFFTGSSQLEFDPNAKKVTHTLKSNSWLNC
pIC50: −log10 of the molar value.
reported_endpoint: pIC50

{"compound_smiles": "CNC(=O)[C@H](Cc1ccccc1)NC(=O)[C@H](CC(C)C)C1(C(=O)NO)CCCC1", "reported_endpoint": "pIC50", "experimental_result": 6.77}

(I) C=CC[C@](C)(C(=O)NO)[C@@H](CC(C)C)C(=O)N[C@@H](CC1CCCCC1)C(=O)NCCc1ccccc1
(II) C=CC[C@](C)(C(=O)NO)[C@@H](CC(C)C)C(=O)N[C@@H](Cc1ccccc1)C(=O)NC
(III) C=CC[C@](C)(C(=O)NO)[C@@H](CC(C)C)C(=O)N[C@@H](CC1CCCCC1)C(=O)NCCc1ccc(S(N)(=O)=O)cc1
Q: Could you please sort these 3 entries by pIC50 from high to low? Enter labels, ranked according to the request.
A: III, II, I
(III: 7.82, II: 7.60, I: 6.80)
